# Test system: St. pneumoniae 12288
Each record is given y if its reported MIC is strictly below 8 µg/mL. Records at or above 8 µg/mL are given n.

# example entries with known answers
# molecule, test_target, assigned_category
measured = [
    ("CC[C@H]1OC(=O)[C@H](C)C(=O)[C@H](C)[C@@H](O[C@@H]2O[C@H](C)C[C@H](N(C)C)[C@H]2O)[C@](C)(OC)C[C@@H](C)C(=O)[C@H](C)[C@H]2[C@H](SCCCn3cnc4c(N)ncnc43)C(=O)O[C@@]21C", "St. pneumoniae 12288", "y"),
    ("CC[C@H]1OC(=O)[C@H](C)C(=O)[C@H](C)[C@@H](O[C@@H]2O[C@H](C)C[C@H](N(C)C)[C@H]2O)[C@](C)(OC)C[C@@H](C)C(=O)[C@H](C)[C@H]2[C@H](SCCc3ccccc3)C(=O)O[C@@]21C", "St. pneumoniae 12288", "n"),
    ("CC[C@H]1OC(=O)[C@H](C)C(=O)[C@H](C)[C@@H](O[C@@H]2O[C@H](C)C[C@H](N(C)C)[C@H]2O)[C@](C)(OC)C[C@@H](C)C(=O)[C@H](C)[C@H]2[C@H](SCCn3cnc(-c4cccnc4)c3)C(=O)O[C@@]21C", "St. pneumoniae 12288", "y"),
    ("CC[C@H]1OC(=O)[C@H](C)C(=O)[C@H](C)[C@@H](O[C@@H]2O[C@H](C)C[C@H](N(C)C)[C@H]2O)[C@](C)(OC)C[C@@H](C)C(=O)[C@H](C)[C@H]2[C@H](Sc3ccccc3)C(=O)O[C@@]21C", "St. pneumoniae 12288", "n"),
    ("CC[C@H]1OC(=O)[C@H](C)[C@@H](O[C@H]2C[C@@](C)(OC)[C@@H](O)[C@H](C)O2)[C@H](C)[C@@H](O[C@@H]2O[C@H](C)C[C@H](N(C)C)[C@H]2O)[C@](C)(O)C[C@@H](C)C(=O)[C@H](C)[C@@H](O)[C@]1(C)O", "St. pneumoniae 12288", "n"),
    ("CC[C@H]1OC(=O)[C@H](C)C(=O)[C@H](C)[C@@H](O[C@@H]2O[C@H](C)C[C@H](N(C)C)[C@H]2O)[C@](C)(OC)C[C@@H](C)C(=O)[C@H](C)[C@H]2N(CCCCn3cnc(-c4cccnc4)c3)C(=O)O[C@]12C", "St. pneumoniae 12288", "y"),
]

[in] Hi there! Is MIC for CO[C@@H]1[C@@H](O[C@@H]2O[C@H](C)[C@@H](O[C@H]3C[C@@](C)(O)[C@@H](OC(=O)CC(C)C)[C@H](C)O3)[C@H](N(C)C)[C@H]2O)[C@@H](CC=O)C[C@@H](C)[C@@H](O)/C=C/C=C/C[C@@H](C)OC(=O)C[C@H]1OC(C)=O [Josamycin, reference compound] below 8 µg/mL, do you know?
[out] n
